Provide the recorded Bmax for the entries that follow.
molecular target: T1, SARS-CoV-2 S on CHO-S cells (SARS-CoV-2, UniProt P0DTC2 14-1273); experiment: flow cytometry, CHO-S cells
T1 construct: whole, on cells

Short answer for NRCoV2-SR04 VHH-Fc (Fc fusion, bivalent VHH-Fc) QVQLVESGGGLVQAGGSLRLSCAASGRTFSSHTVGWYRQAPGKQRDLVAAISMGGNTNYADYADSVKGRFTISRDNAKNTLYLQMNSLKPEDTAVYYCNTAALVGNRLLPMATITWGQGTQVTVSS : Bmax was 10100

Form: binder = NRCoV2-05 VHH-Fc (Fc fusion, bivalent VHH-Fc) EVKLVQSGGGLVQPGGSLRLSCAASGFIFSNYAMNWVRQAPGKGLEWVSGINSGGGDTRYADSVKGRFTVSRDNAKNTLYLQMNSLKPEDTGVYYCSKGPVSSYYGSGYDYRGQGTQVTVSS ; Bmax = 17400

Notebook: NRCoV2-MRed07 VHH-Fc (Fc fusion, bivalent VHH-Fc) EVQLVESGGGLVQPGGSLTLSCAASGSIGPFNTMGWYRQAPGNQREPAAIITRGGVTNYADSVKGRFTISRDNAKNAVYLQMDSLKPDDTAVYYCYANYGWAIPYWGNGTQVTVSS , Bmax read as 8670

// Bmax value for NRCoV2-02 VHH-Fc (Fc fusion, bivalent VHH-Fc) EVQLVESGGGLVQAGGSLRLSCAASGFTFSNYAMNWVRQAPGKGLEWVSGISGRGDDTRYADSVKGRFTISRDNAKNTLFLQMRSLRPEDTGVYRCTKGPDLYYFGSGYSDRGQGTQVTVSS : 18600

The recorded Bmax for NRCoV2-SR01 VHH-Fc (Fc fusion, bivalent VHH-Fc) EVQLVQSGGGSVQAGGSLRLSCVASGFTFDNYAIGWFRQAPGKEREGVSCISGNGGVTIYADSVKGRFTISRDNAKNLVYLQMNSLKPEDTAVYYCAATGIRSTWSVYGCSRLAGPYDYWGQGTQVTVSS is 15400

Bmax reading for NRCoV2-SR16 VHH-Fc (Fc fusion, bivalent VHH-Fc) QVQLVQSAGGLVQAGGSLRLSCVVSGTTFSRYHMGWHRQAPGKQRDFVAGISTSGAVTYADSAKGRFTISRDNAKNTVYLEMNSLKLEDTALYYCNTGGWDYRSSTFIMGLNWGQGTQVTVSS : 11600

Just so you know, measured Bmax for NRCoV2-S2B3 VHH-Fc (Fc fusion, bivalent VHH-Fc) QVQLVDSGGGLVQAGGSLRLSCAASASTFGDSAMGYYRQAPGKQRELVATISTGSNTNYADSVKGRFTISRDDAKNTVYLQMNSLKPEDTAVYYCNYRSIYYGQNFWGQGTQVTVSS came out at 6660

Briefly, Bmax measured for NRCoV2-06 VHH-Fc (Fc fusion, bivalent VHH-Fc) EVQLVQSGGGLVQAGESLRLSCAASVSTFSSYAMGWYRQAPGKQRELVASIGFVGATYYIDSVKGRFTISRDNAKKTAYLQMNDLKPDDTAVYYCNARHYGGSEYWGQGTQVTVSS : 13600

Reported Bmax for NRCoV2-MRed18 VHH-Fc (Fc fusion, bivalent VHH-Fc) EVQLVESGGGLVQPGGSLRLSCAASTTVFGRNAMGWYRQAPGKERELVATVSDGGTPNYADSVKGRFTISRDNAKNTIYLQMNSLEPEDTAVYYCNYYNYYYGRNFWGQGTQVTVSS was 10200

Item: NRCoV2-S2H4 VHH-Fc (Fc fusion, bivalent VHH-Fc) QVQLVQSGGGLVQAGGSLRLSCAASGFTFNLYSIAWFRQAPGKEREGVSCINSGDRDSTTYYADSVKGRFTISRDNAKHTAYLQMDSLKPEDTAVYYCALVFGYTSRDYCLTPKRGNYWGQGTQVTVSS | Bmax: 7910

Value of Bmax reported for the binder NRCoV2-17 VHH-Fc (Fc fusion, bivalent VHH-Fc) EVQLQQSGGGLVQTGGSLRLSCAAAGSPFSQLAMSWYRQISGKERAWVASISPTGNRSYSKIAKGRFTISRDNAKNTVTLQMTSLKPEDTAAYICQAANVNGGDYWGQGTQVTVSS is 19000

Form field Bmax, entry NRCoV2-MRed11 VHH-Fc (Fc fusion, bivalent VHH-Fc) EVQLVESGGGLVQAGGSLRLSCAASGFTFSSYAMSWHRQAPGKGLEWVSAINSGGGSTSYADSVKGRFAISRDNAKNTLYLQMNSLKPEDTAVYYCATTISDGSSWSTKSYRGQGTQVTVSS : 3250

Value of measured Bmax for the entry NRCoV2-15 VHH-Fc (Fc fusion, bivalent VHH-Fc) EVQLVSSGGGLVEAGGSLRLSCIASGSTSGRNTMGWFRQAPGKQREWVAIVSTSGATNYAGSVKGRFTLSRDNAKNAVYLQMNNLKPEDTAVYYCYAAYGGGGDYWGQGTQVTVSS : 21100

Lookup result for NRCoV2-S2G3 VHH-Fc (Fc fusion, bivalent VHH-Fc) QVQLVQSGGGSVQAGGSLRLSCAASGSTFGIFLMGWRRQAPGKQRELVAHITSGGATNYADSVKGRFTISRDNAKNTVYLQMNSLEPEDTAVYYCYTTKRDDASVYWGQGTQVTVSS ; measured Bmax: 7530

So for NRCoV2-S2A4 VHH-Fc (Fc fusion, bivalent VHH-Fc) QVQLVQSGGGLVQAGGSLRLSCAVSGSPFRSNVMEWYRQAPGKQRELVASISTGGSRTYTDSVKGRFTISRDNAKNEAFLQMNSLKPEDTAVYYCHAAARDSHGIYLLDTWGQGTQVTVSS , the logged Bmax turned out to be 6860
